Values of pKi reported for Histamine H3 receptor (Homo sapiens) appear below.
// pKi here means minus log10 of the molar concentration (mol/L)

Entry O=c1c2cc(Cl)ccc2oc2ccc(OCCCCCN3CCCCCC3)cc12 , system Histamine H3 receptor (Homo sapiens): what pKi was measured?
7.00

Give pKi (Histamine H3 receptor (Homo sapiens)) of the following compound: CC1CCN(CCCCCOc2ccc3oc4ccccc4c(=O)c3c2)CC1
6.96

Notebook entry, Histamine H3 receptor (Homo sapiens) assay: pKi of CC1CCN(CCCCCCOc2ccc3oc4ccc(Cl)cc4c(=O)c3c2)CC1 = ?
6.33

State its pKi on Histamine H3 receptor (Homo sapiens): O=c1c2cc(Cl)ccc2oc2ccc(OCCCCCCN3CCCCCC3)cc12
Sequence (Q9Y5N1 whole entry): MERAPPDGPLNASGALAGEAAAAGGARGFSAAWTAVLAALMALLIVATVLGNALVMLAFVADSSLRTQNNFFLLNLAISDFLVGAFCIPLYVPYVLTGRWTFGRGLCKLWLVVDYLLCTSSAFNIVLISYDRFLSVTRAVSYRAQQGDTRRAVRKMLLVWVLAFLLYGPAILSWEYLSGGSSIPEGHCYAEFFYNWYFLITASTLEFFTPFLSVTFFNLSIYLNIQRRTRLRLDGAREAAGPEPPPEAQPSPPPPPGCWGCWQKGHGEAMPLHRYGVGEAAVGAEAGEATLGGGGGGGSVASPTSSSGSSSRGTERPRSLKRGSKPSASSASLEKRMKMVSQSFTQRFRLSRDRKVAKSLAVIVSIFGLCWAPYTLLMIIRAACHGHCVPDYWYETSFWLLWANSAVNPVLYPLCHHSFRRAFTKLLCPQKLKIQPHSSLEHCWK
6.62

Under Histamine H3 receptor (Homo sapiens): pKi value of O=c1c2cc(Cl)ccc2oc2ccc(OCCCCCN3CCCCC3)cc12 ?
6.82

* * *

# collection of pIC50 values tested on Acetylcholinesterase (Electrophorus electricus, UniProt O42275)
# Sequence (O42275 whole entry): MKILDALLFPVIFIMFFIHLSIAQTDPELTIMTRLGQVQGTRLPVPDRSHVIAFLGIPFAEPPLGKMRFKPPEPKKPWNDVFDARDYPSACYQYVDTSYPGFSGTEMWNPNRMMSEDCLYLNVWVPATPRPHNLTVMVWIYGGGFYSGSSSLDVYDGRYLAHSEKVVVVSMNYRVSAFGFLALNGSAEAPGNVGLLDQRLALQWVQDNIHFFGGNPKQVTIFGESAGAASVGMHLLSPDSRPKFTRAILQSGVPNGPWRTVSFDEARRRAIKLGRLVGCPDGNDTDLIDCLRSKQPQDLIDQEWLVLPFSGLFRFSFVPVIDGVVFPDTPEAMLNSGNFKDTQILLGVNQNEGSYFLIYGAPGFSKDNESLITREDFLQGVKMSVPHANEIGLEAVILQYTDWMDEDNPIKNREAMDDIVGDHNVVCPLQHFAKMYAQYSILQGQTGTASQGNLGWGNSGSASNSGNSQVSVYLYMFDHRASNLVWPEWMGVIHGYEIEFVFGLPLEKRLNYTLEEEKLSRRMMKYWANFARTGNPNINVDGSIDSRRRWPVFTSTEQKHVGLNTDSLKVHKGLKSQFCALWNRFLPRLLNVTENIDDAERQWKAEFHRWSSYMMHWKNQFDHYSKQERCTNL
# log scale: pIC50 equals minus log10 of the concentration in mol/L

Param item = CC1CCCN(CCCCCOc2ccc3oc4ccccc4c(=O)c3c2)C1 (stereo not drawn) ; retrieve measured pIC50.
6.47

Sample CC1CCCN(CCCCCCOc2ccc3oc4ccccc4c(=O)c3c2)C1 (stereo not drawn) — what was its pIC50?
6.41

New cases:
Can you share its pIC50? I mean this compound: O=c1c2cc(Cl)ccc2oc2ccc(OCCCCCCN3CCCCCC3)cc12
6.57

Origin of values: ChEMBL document CHEMBL4706551
